Tested on: NCI-H292: human mucoepidermoid lung carcinoma cells
EXPERIMENT_SUMMARY: MTT assay on NCI-H292
Assay type: cell-based
TEST_CONTEXT: NCI-H292, 96 h, growth inhibition, 96 h incubation
The entries below come with measured IC50 values attached.

# COMPOUND, MEASURED_TARGET, IC50 [nM]
measured = [
    ("CC(C)(C)[C@H](c1cc(-c2cc(F)ccc2F)cn1Cc1ccccc1)N(CC[C@H](N)C(=O)NCCNC(=O)CNC(=O)CC(SC[C@H](N)C(=O)O)C(=O)O)C(=O)CO (single isomer, unassigned) [Example M13]", "NCI-H292: human mucoepidermoid lung carcinoma cells", 152),
    ("CC(C)(C)[C@H](c1cc(-c2cc(F)ccc2F)cn1Cc1ccccc1)N(CC[C@H](N)C(=O)NCCOCCN1C(=O)CC(SC[C@H](N)C(=O)O)C1=O)C(=O)CO (some centres unmarked)", "NCI-H292: human mucoepidermoid lung carcinoma cells", 44.3),
    ("CC(C)(C)[C@H](c1cc(-c2cc(F)ccc2F)cn1Cc1ccccc1)N(CC[C@H](N)C(=O)NCCC(=O)N[C@@H](CCC(=O)O)C(=O)O)C(=O)CO", "NCI-H292: human mucoepidermoid lung carcinoma cells", 500),
    ("CC(C)(C)[C@H](c1cc(-c2cc(F)ccc2F)cn1Cc1ccccc1)N(CC[C@H](N)C(=O)NCCNC(=O)CCCC(=O)NCCCC[C@H](N)C(=O)O)C(=O)CO", "NCI-H292: human mucoepidermoid lung carcinoma cells", 187),
    ("CC(C)(C)[C@H](c1cc(-c2cc(F)ccc2F)cn1Cc1ccccc1)N(CC[C@H](N)C(=O)NCCNC(=O)CNC(=O)C(CC(=O)O)SC[C@H](N)C(=O)O)C(=O)CO (single isomer, unassigned) [Example M15]", "NCI-H292: human mucoepidermoid lung carcinoma cells", 133),
    ("CC(C)(C)[C@H](c1cc(-c2cc(F)ccc2F)cn1Cc1ccccc1)N(CC[C@H](N)C(=O)NCCNC(=O)CC[C@H](N)C(=O)O)C(=O)CO", "NCI-H292: human mucoepidermoid lung carcinoma cells", 35.5),
    ("CNC(=O)[C@H](CCN(C(=O)CO)[C@@H](c1cc(-c2cc(F)ccc2F)cn1Cc1ccccc1)C(C)(C)C)NC(=O)[C@H](CC(N)=O)NC(=O)[C@@H](C)NC(=O)[C@H](C)NC(=O)Cc1ccncc1", "NCI-H292: human mucoepidermoid lung carcinoma cells", 190),
    ("CC(C)(C)[C@H](c1cc(-c2cc(F)ccc2F)cn1Cc1ccccc1)N(CC[C@H](N)C(=O)NCCNC(=O)CN1C(=O)CC(SC[C@H](N)C(=O)O)C1=O)C(=O)CO (some centres unmarked)", "NCI-H292: human mucoepidermoid lung carcinoma cells", 500),
    ("CNC(=O)[C@H](CCN(C(=O)CO)[C@@H](c1cc(-c2cc(F)ccc2F)cn1Cc1ccccc1)C(C)(C)C)NC(=O)[C@H](CC(N)=O)NC(=O)[C@H](C)NC(=O)[C@H](C)NC(=O)Cc1ccncc1 [Example R3r-LLL, reference compound]", "NCI-H292: human mucoepidermoid lung carcinoma cells", 204),
    ("CC(C)(C)[C@H](c1cc(-c2cc(F)ccc2F)cn1Cc1ccccc1)N(CC[C@H](N)C(=O)NCCC(=O)NCCCC[C@H](N)C(=O)O)C(=O)CO", "NCI-H292: human mucoepidermoid lung carcinoma cells", 121),
    ("CC(C)(C)[C@H](c1cc(-c2cc(F)ccc2F)cn1Cc1ccccc1)N(CC[C@H](N)C(=O)NCCNC(=O)CNC(=O)CCCC(=O)NCCCC[C@H](N)C(=O)O)C(=O)CO", "NCI-H292: human mucoepidermoid lung carcinoma cells", 155),
    ("CC(C)(C)[C@H](c1cc(-c2cc(F)ccc2F)cn1Cc1ccccc1)N(CC[C@H](N)C(=O)NCCNC(=O)CNC(=O)CC(SC[C@H](N)C(=O)O)C(=O)O)C(=O)CO (single isomer, unassigned) [Example M14]", "NCI-H292: human mucoepidermoid lung carcinoma cells", 174),
    ("CC(C)(C)[C@H](c1cc(-c2cc(F)ccc2F)cn1Cc1ccccc1)N(CCCN)C(=O)CSC[C@H](N)C(=O)O", "NCI-H292: human mucoepidermoid lung carcinoma cells", 0.0432),
    ("CC(C)(C)[C@H](c1cc(-c2cc(F)ccc2F)cn1Cc1ccccc1)N(CC[C@H](N)C(=O)NCCNC(=O)CSC[C@H](N)C(=O)O)C(=O)CO", "NCI-H292: human mucoepidermoid lung carcinoma cells", 21.2),
]
